For each record, write down the corresponding EC50 (% of hG-CSF) conjugated to SPA-PEG 5000.
Biological target: T1, human G-CSF receptor (human, UniProt Q99062 25-836)
T1 sequence (looked up): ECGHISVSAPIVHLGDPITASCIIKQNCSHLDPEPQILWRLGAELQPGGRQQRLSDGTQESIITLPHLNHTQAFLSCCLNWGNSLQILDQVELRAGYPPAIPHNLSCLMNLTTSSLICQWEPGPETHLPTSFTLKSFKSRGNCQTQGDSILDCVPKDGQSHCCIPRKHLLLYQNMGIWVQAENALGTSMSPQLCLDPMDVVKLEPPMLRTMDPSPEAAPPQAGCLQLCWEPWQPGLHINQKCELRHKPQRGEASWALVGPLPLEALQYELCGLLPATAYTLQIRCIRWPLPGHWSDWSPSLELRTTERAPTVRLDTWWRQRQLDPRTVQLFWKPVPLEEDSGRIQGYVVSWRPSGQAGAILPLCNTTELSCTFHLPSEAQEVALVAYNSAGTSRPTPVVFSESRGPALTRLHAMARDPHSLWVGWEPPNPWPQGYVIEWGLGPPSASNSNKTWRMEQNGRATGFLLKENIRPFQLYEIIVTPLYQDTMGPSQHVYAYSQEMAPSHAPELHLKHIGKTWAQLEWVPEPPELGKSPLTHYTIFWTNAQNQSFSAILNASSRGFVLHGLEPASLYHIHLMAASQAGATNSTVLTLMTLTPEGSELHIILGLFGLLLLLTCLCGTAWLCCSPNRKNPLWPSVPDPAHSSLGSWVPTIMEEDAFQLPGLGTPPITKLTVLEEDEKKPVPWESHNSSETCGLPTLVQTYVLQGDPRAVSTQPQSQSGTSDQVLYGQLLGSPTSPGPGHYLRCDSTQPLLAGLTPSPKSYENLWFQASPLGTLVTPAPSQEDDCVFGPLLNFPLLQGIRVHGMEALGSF
Test: cell-based or functional assay

## Input Request the reported EC50 (% of hG-CSF) conjugated to SPA-PEG 5000 associated with G-CSF variant K16/34/40R Q77 conjugated to SPA-PEG 5000 (ligand, SPA-PEG 5000 conjugated to the available PEGylation sites) TPLGPASSLPQSFLLRCLEQVRKIQGDGAALQERLCATYRLCHPEELVLLGHSLGIPWAPLSSCPSQALQLAGCLSKLHSGLFLYQGLLQALEGISPELGPTLDTLQLDVADFATTIWQQMEELGMAPALQPTQGAMPAFASAFQRRAGGVLVASHLQSFLEVSYRVLRHLAQP
## Output 0 % of hG-CSF

## Input Which EC50 (% of hG-CSF) conjugated to SPA-PEG 5000 is reported for this binder? G-CSF variant K16/34/40R Q70K Q120K conjugated to SPA-PEG 5000 (ligand, SPA-PEG 5000 conjugated to the available PEGylation sites) TPLGPASSLPQSFLLRCLEQVRKIQGDGAALQERLCATYRLCHPEELVLLGHSLGIPWAPLSSCPSQALKLAGCLSQLHSGLFLYQGLLQALEGISPELGPTLDTLQLDVADFATTIWQKMEELGMAPALQPTQGAMPAFASAFQRRAGGVLVASHLQSFLEVSYRVLRHLAQP
## Output 25 % of hG-CSF

## Input Look at this binder and give its reported EC50 (% of hG-CSF) conjugated to SPA-PEG 5000. G-CSF variant K16/34/40R Q90K T105K Q120K conjugated to SPA-PEG 5000 (ligand, SPA-PEG 5000 conjugated to the available PEGylation sites) TPLGPASSLPQSFLLRCLEQVRKIQGDGAALQERLCATYRLCHPEELVLLGHSLGIPWAPLSSCPSQALQLAGCLSQLHSGLFLYQGLLKALEGISPELGPTLDKLQLDVADFATTIWQKMEELGMAPALQPTQGAMPAFASAFQRRAGGVLVASHLQSFLEVSYRVLRHLAQP
## Output 2 % of hG-CSF

## Input Need EC50 (% of hG-CSF) conjugated to SPA-PEG 5000 of G-CSF variant K34/40R conjugated to SPA-PEG 5000 (ligand, SPA-PEG 5000 conjugated to the available PEGylation sites) TPLGPASSLPQSFLLKCLEQVRKIQGDGAALQERLCATYRLCHPEELVLLGHSLGIPWAPLSSCPSQALQLAGCLSQLHSGLFLYQGLLQALEGISPELGPTLDTLQLDVADFATTIWQQMEELGMAPALQPTQGAMPAFASAFQRRAGGVLVASHLQSFLEVSYRVLRHLAQP , thanks.
## Output 5 % of hG-CSF

## Input Any idea what EC50 (% of hG-CSF) conjugated to SPA-PEG 5000 was measured for G-CSF variant K16/34R conjugated to SPA-PEG 5000 (ligand, SPA-PEG 5000 conjugated to the available PEGylation sites) TPLGPASSLPQSFLLRCLEQVRKIQGDGAALQERLCATYKLCHPEELVLLGHSLGIPWAPLSSCPSQALQLAGCLSQLHSGLFLYQGLLQALEGISPELGPTLDTLQLDVADFATTIWQQMEELGMAPALQPTQGAMPAFASAFQRRAGGVLVASHLQSFLEVSYRVLRHLAQP ?
## Output 10 % of hG-CSF

## Input I would be grateful if you could share the reported EC50 (% of hG-CSF) conjugated to SPA-PEG 5000 for G-CSF variant K16/34/40R T133K conjugated to SPA-PEG 5000 (ligand, SPA-PEG 5000 conjugated to the available PEGylation sites) TPLGPASSLPQSFLLRCLEQVRKIQGDGAALQERLCATYRLCHPEELVLLGHSLGIPWAPLSSCPSQALQLAGCLSQLHSGLFLYQGLLQALEGISPELGPTLDTLQLDVADFATTIWQQMEELGMAPALQPKQGAMPAFASAFQRRAGGVLVASHLQSFLEVSYRVLRHLAQP .
## Output 10 % of hG-CSF

Hello, the source for this data is patent US20030118612A1, in case you need it.
